# tested on: ENPP-1 ECD (Homo sapiens (Human), UniProt P22413)
# Sequence (P22413 98-925): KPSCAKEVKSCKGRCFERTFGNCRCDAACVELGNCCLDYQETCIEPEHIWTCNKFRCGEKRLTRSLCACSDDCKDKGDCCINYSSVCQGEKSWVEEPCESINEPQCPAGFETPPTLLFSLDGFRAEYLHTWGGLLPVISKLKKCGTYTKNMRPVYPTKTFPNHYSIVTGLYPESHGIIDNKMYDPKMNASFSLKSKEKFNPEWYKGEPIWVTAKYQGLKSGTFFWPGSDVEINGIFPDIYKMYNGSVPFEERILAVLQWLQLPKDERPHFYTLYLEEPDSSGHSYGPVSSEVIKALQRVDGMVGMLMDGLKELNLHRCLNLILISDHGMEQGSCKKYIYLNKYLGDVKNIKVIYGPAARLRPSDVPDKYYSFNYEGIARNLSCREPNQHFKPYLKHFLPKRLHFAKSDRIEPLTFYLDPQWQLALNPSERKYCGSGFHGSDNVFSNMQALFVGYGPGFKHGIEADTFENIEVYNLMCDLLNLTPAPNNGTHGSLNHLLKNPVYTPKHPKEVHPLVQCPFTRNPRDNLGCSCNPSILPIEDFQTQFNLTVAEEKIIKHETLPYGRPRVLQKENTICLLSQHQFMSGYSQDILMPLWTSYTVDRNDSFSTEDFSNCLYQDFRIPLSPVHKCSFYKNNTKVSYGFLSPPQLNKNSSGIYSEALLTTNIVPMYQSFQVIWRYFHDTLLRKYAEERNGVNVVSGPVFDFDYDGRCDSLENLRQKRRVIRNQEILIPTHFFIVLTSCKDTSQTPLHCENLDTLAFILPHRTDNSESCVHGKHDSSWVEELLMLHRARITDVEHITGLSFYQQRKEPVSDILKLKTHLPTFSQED
# experiment notes: Assay 1: inhibition of ENPP1 hydrolysis of 2′,3′-cGAMP (AMP-Glo, […] enzyme)
# run parameters: read-out: Assay 1 (IC50); inhibition of ENPP1 hydrolysis of 2′,3′-cGAMP; no unit in Table 18 (Table 17 legend for this assay uses nM)
The threshold is 2 nM. Values of IC50 beneath it are tagged true (1); values meeting or exceeding it are tagged false (0).

Query: Answer whether the compound COc1cc2nccc(Oc3ccc([S@@](=N)(=O)C4CC4)cc3)c2cc1F [Compound 120a] has IC50 strictly less than 2 nM
Result: true (1)

Query: Answer whether the compound COc1ccc2c(Oc3ccc([S@](=N)(=O)C4CC4)cc3)ccnc2c1 [Compound 60b] has IC50 strictly less than 2 nM
Result: false (0)

Query: Answer whether the compound COc1ccc2c(N3CCC4(CC3)CCN([S@@](C)(=N)=O)C4)ccnc2c1 [Compound 55b] has IC50 strictly less than 2 nM
Result: false (0)

Query: Answer whether the compound COc1cc2ncc(C#N)c(Oc3ccc([S@@](C)(=N)=O)cc3)c2cc1F [Compound 44a] has IC50 strictly less than 2 nM
Result: false (0)

Query: Answer whether the compound COc1cc2nccc(Oc3ccc([S@](=N)(=O)C4CC4)cc3)c2cc1F [Compound 120b] has IC50 strictly less than 2 nM
Result: false (0)

Query: Answer whether the compound CC[S@](=N)(=O)c1ccc(Oc2ccnc3cc(OC)ccc23)cc1 [Compound 103b] has IC50 strictly less than 2 nM
Result: false (0)

Query: Answer whether the compound CC[S@@](=N)(=O)c1ccc(Oc2ccnc3cc(OC)ccc23)cc1 [Compound 103a] has IC50 strictly less than 2 nM
Result: false (0)

Query: Answer whether the compound COc1ccc2c(Oc3ccc([S@@](C)(=N)=O)cc3)ccnc2c1 [Compound 80a] has IC50 strictly less than 2 nM
Result: false (0)

Here is the next item to consider.
Query: Answer whether the compound COc1ccc2c(OCc3cccc([S@@](C)(=N)=O)c3)ccnc2c1 [Compound 133a] has IC50 strictly less than 2 nM
Result: true (1)

Data origin, for the record: patent US11780849B2
